B1: library; a variant is named by its letters at N, in order (parent)
chain: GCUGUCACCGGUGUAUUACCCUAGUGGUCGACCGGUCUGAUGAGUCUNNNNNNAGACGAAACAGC

- Variants of: B1
- assay.method.text: FACS-Seq fitted mean relative fluorescence mCherry/BFP with ligand (log10 relative fluorescence); ligand: hypoxanthine (xanthine aptamer); ligand concentration (+) FACS-Seq: 5 mM; higher = higher reporter protein expression
- assay.context: HEK293T, ligand present: yes
value.type: FACS-Seq fitted mean (log10)

variant.id | obs.value
ACAAAA | 0.192
UCAGGA | 0.663
AUCCCG | 0.148
CUGGGG | 0.484
GUAGUG | 0.532
GAUUAC | 0.749
GUGACU | -0.229
GGCAAA | -0.0498
AUUACG | 0.626
GAUUAU | 0.455
UCUGUG | -0.796
AUCAGU | 0.476
GGGGAA | 0.751
UCACUG | 0.463
UAGAGA | 0.431
AGAGAU | -0.481
AGAUAA | -0.0706
ACGGAG | 0.482
GAAAAG | 0.473
ACAAGG | 0.113
AACUGU | 0.538
AUCCGC | 0.517
GUUGUU | 0.675
GACUGA | 0.639
GGGUAC | 0.529
UGAGUG | 0.263
ACAAUA | 0.552
UCACCG | 0.592
CGGGUA | 0.64
GAGAUC | 0.211
CUAAUG | 0.577
UCAGUA | 0.386
UACCGG | 0.197
GAAUAC | 0.499
ACUUCG | 0.766
CAUGAG | 0.35
GGUGGC | 0.392
CCAACC | 0.584
GACGAA | 0.566
GAGCAC | 0.682
UUUAGG | 0.462
UUUAGC | 0.555
GGUAUG | 0.434
CAAAAA | 0.526
AUAUGA | 0.758
UGGCUG | 0.298
AGACAA | 0.0293
GAUACG | 0.37
UAGGUG | 0.591
GGCCGU | 0.502
UAAGGG | 0.519
GAUAAU | 0.133
GCUAUU | 0.412
UUCGUA | 0.384
GCCCUU | 0.231
AACUGC | 0.697
CGGAGU | 0.556
UUAUGA | -0.0882
GACAUA | 0.373
GCCGUU | 0.037
UCCCAG | 0.506
GAGGAC | 0.308
GAGAGC | 0.494
AAACAA | 0.382
AAGCAG | 0.501
ACAGAU | 0.461
GUGUAG | 0.625
AAUAAG | 0.638
AGGUCG | 0.463
GACCAG | 0.531
CCUGUG | 0.685
GAGGCG | 0.597
UGGACG | 0.676
GUGCUG | 0.542
GGGCUA | 0.456
UACCGU | 0.448
UGGCAU | 0.465
UAUCAC | 0.584
UACCAA | -0.235
ACAGCG | 0.456
CCUGUA | 0.515
AUAAAU | 0.576
ACCGAU | 0.531
AGGUAA | 0.443
GCGACG | 0.666
ACCUUG | 0.521
UGUAAG | 0.586
GGUUUU | 0.378
AGGGUA | 0.427
GAAGGA | 0.559
ACUCUG | 0.677
